// data source = patent US20090221691A1

target: biotinylated Gβ1γ2 mutant Tyr145Ala (rat) (UniProt P54311); test: phage ELISA, % of wild-type b-βγ
Sequence (P54311 whole entry Y145A, chain 1 of 2): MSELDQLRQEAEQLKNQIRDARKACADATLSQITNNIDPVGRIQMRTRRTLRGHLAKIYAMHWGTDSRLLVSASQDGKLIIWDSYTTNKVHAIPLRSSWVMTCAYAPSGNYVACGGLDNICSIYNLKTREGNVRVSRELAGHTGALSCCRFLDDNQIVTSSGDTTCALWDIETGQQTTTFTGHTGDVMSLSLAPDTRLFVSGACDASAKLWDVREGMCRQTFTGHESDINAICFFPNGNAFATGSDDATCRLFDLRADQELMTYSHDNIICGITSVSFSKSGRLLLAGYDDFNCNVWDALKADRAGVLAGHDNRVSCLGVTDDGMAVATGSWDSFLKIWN
Sequence (P63212 2-68, chain 2 of 2, further chain): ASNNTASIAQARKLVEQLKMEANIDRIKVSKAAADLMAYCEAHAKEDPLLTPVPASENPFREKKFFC
recorded metric: % of Wild-Type Signal

Known results for binders:
binder: SIGKALFILGYPDYD [phage 3.14 (SIGKALFILGYPDYD)]
% of Wild-Type Signal: 0.8%

binder: WCPPKAMTQLGIKAC (Group II) [phage C14 (WCPPKAMTQLGIKAC)]
% of Wild-Type Signal: 1.9%

binder: SCEKRYGIEFCT [phage C4 (…)]
% of Wild-Type Signal: 4.4%

binder: SCEKRLGVRSCT (Group III) [phage C5 (SCEKRLGVRSCT)]
% of Wild-Type Signal: 16.7%

binder: WCPPKLEQWYDGCA (Group IV) [phage C2 (WCPPKLEQWYDGCA)]
% of Wild-Type Signal: 4.5%

binder: SCGHGLKVQSTIGACA (Group II) [phage 3C (SCGHGLKVQSTIGACA)]
% of Wild-Type Signal: 2.7%

binder: LCSKAYLLLGQTC (Group I) [phage 2F (LCSKAYLLLGQTC)]
% of Wild-Type Signal: 0.1%

Attention now shifts to the item below.
[in] // % of Wild-Type Signal lookup, key: SCKRTKAQILLAPCT (Group I; also called Cl) [phage C1 (SCKRTKAQILLAPCT)]
[out] 88%
